# Tested on: Vero E6 (Vero6) cells
# Test context: uninfected Vero6 cells; mean of two independent experiments
Criterion: Max Toxicity (%) strictly under 80%. Met: satisfied. Not met: not satisfied.

Example cases with answers are listed next.
| Item smiles | Answer label |
| --- | --- |
| O=C(O)C[C@H](O)C[C@H](O)/C=C/c1c(C2CC2)nc2ccccc2c1-c1ccc(F)cc1 | not satisfied |
| CC[C@H](C)C(=O)O[C@H]1C[C@@H](C)C=C2C=C[C@H](C)[C@H](CC[C@@H]3C[C@@H](O)CC(=O)O3)[C@H]21 | satisfied |

Now turn to the next molecule.
Problem: Lab note: confirm whether the reported Max Toxicity (%) for this molecule is below 80%, equality not counting. molecule: CC[C@H](C)C(=O)O[C@H]1C[C@H](O)C=C2C=C[C@H](C)[C@H](CC[C@@H](O)C[C@@H](O)CC(=O)O)[C@H]21
Solution: satisfied

* * *

# Protocol text: in vitro
# Test context: African green monkey
Readout label: CC50 (µM)
Your answer is read as µM, so omit the unit and give the number.

| Molecule | CC50 [µM] |
| --- | --- |
| CC[C@H](C)C(=O)O[C@H]1C[C@@H](C)C=C2C=C[C@H](C)[C@H](CC[C@@H]3C[C@@H](O)CC(=O)O3)[C@H]21 | 16.9 |
| CC(C)n1c(/C=C/C(O)CC(O)CC(=O)O)c(-c2ccc(F)cc2)c2ccccc21 (stereo not shown) | 10.6 |
| CCC(C)(C)C(=O)O[C@H]1C[C@@H](C)C=C2C=C[C@H](C)[C@H](CC[C@@H]3C[C@@H](O)CC(=O)O3)[C@H]21 | 6.5 |

Here's the next entry for you.
Problem: What CC50 value was documented for this molecule, O=C(O)C[C@H](O)C[C@H](O)/C=C/c1c(C2CC2)nc2ccccc2c1-c1ccc(F)cc1 ?
Solution: 0.3
